Reference source for all entries: paper PMC8162404

# targetEntity: Gal-1 (Homo sapiens, UniProt P09382)
# Construct: made in house; host or cells: E. coli BL21(DE3)
# Sequence (P09382 whole entry): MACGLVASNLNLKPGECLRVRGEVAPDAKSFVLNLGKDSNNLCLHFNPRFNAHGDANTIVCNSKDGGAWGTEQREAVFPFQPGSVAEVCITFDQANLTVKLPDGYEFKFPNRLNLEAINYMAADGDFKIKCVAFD
# procedureText: Competition pull-down with lactose
# Format: binding
# protocolConditions: H14 library; lactose 10 mM; read-out: Surface mapping KD (apparent), competition
# Experimental: Interactions between the H14 helical LSMs and the targets were abundant, but safe recognition of the native PPI interfaces on the targets is a criterion of druggability. […] For highlighting the effect of the competitor on the binding fingerprints, KD ratios and the LSM replacement percentages were calculated and are represented as heat maps (see ESI, Fig. S7 ^†). […] To avoid overlooking interesting orthosteric weak binders, direct replacement levels were assessed (see ESI, Fig. S7 ^†). […]
quantityKind: log10 Kd (log10 of the value in µM)
Would you kindly interpret these values as log10 of Kd expressed in µM?

## Input // lookup log10 Kd for NC(=O)C[C@@H](CC(=O)N[C@H]1CCCC[C@@H]1C(N)=O)NC(=O)[C@H]1CCCC[C@@H]1NC(=O)[C@H]1CCCC[C@@H]1NC(=O)C[C@H](Cc1ccc(O)cc1)NC(=O)[C@H]1CCCC[C@@H]1N [H14 YN]
## Output 2.43

## Input Item: NC(=O)C[C@@H](CC(=O)N[C@H]1CCCC[C@@H]1C(N)=O)NC(=O)[C@H]1CCCC[C@@H]1NC(=O)[C@H]1CCCC[C@@H]1NC(=O)C[C@H](CCC(=O)O)NC(=O)[C@H]1CCCC[C@@H]1N [H14 EN]
## Output 2.66

## Input Continue with NC(=O)[C@H]1CCCC[C@@H]1NC(=O)C[C@H](CCC(=O)O)NC(=O)[C@H]1CCCC[C@@H]1NC(=O)[C@H]1CCCC[C@@H]1NC(=O)C[C@H](CO)NC(=O)[C@H]1CCCC[C@@H]1N [H14 SE]
## Output 2.62

## Input // repeat for C[C@@H](CC(=O)N[C@H]1CCCC[C@@H]1C(=O)N[C@H]1CCCC[C@@H]1C(=O)N[C@H](CC(=O)N[C@H]1CCCC[C@@H]1C(N)=O)Cc1ccccc1)NC(=O)[C@H]1CCCC[C@@H]1N [H14 AF] and report
## Output 2.52

## Input Continue with NCCCC[C@@H](CC(=O)N[C@H]1CCCC[C@@H]1C(N)=O)NC(=O)[C@H]1CCCC[C@@H]1NC(=O)[C@H]1CCCC[C@@H]1NC(=O)C[C@H](Cc1c[nH]c2ccccc12)NC(=O)[C@H]1CCCC[C@@H]1N [H14 WK]
## Output 2.40

## Input Request: C[C@@H](CC(=O)N[C@H]1CCCC[C@@H]1C(N)=O)NC(=O)[C@H]1CCCC[C@@H]1NC(=O)[C@H]1CCCC[C@@H]1NC(=O)C[C@H](Cc1ccccc1)NC(=O)[C@H]1CCCC[C@@H]1N [H14 FA]
## Output 2.18

## Input Can you check NCCCC[C@@H](CC(=O)N[C@H]1CCCC[C@@H]1C(N)=O)NC(=O)[C@H]1CCCC[C@@H]1NC(=O)[C@H]1CCCC[C@@H]1NC(=O)C[C@H](CC(=O)O)NC(=O)[C@H]1CCCC[C@@H]1N [H14 DK] next?
## Output 2.61

## Input Same lookup for NC(=O)CC[C@@H](CC(=O)N[C@H]1CCCC[C@@H]1C(N)=O)NC(=O)[C@H]1CCCC[C@@H]1NC(=O)[C@H]1CCCC[C@@H]1NC(=O)C[C@H](CCC(=O)O)NC(=O)[C@H]1CCCC[C@@H]1N [H14 EQ] , please.
## Output 2.65
